System: A549 cancer cell line
assay_notes: Cytotoxicity: inhibitory growth activity, sulforhodamine B assay
Format: cell-based
run_parameters: 24 hours drug exposure, 96 hours recovery, SRB
parameter: pIC50
Numbers only, as −log10 of the molar value.

Worked examples, 2 molecules total:
[[record]]
molecule = "CN(C)c1ccc(N=Nc2cc[nH]n2)cc1.F[P-](F)(F)(F)(F)F.[I-].[Ru+2].c1ccc(-c2ccccc2)cc1"
measurement = 4.38

[[record]]
molecule = "CN(C)c1ccc(N=Nc2ccccn2)cc1.Cc1ccc(C(C)C)cc1.F[P-](F)(F)(F)(F)F.[I-].[Ru+2] [Compound 8, [Ru(p-cymene)(Azpy-NMe2)I]PF6]"
measurement = 5.52


Kindly review the next molecule as well.
May I ask what pIC50 has been recorded for CN(C)c1ccc(N=Nc2cc[nH]n2)cc1.F[P-](F)(F)(F)(F)F.[Cl-].[Ru+2].c1ccc(-c2ccccc2)cc1 ?
4.49
